# target-entity: BRD4 (Homo sapiens, UniProt O60885)
# Construct: HEK293 containing a HiBit insertion for BRD4; endogenous in cells; host or cells: HEK293 with a HiBiT insertion for BRD4
# assay-name: Assay 1 - Degradation of HiBit-BRD4 in HEK293
# Type: cell-based
# test-context: HiBit-BRD4 in HEK293, 6 h treatment
measured-quantity: DC50

Worked cases, answers included:
INSERT INTO assay_data (molecule, target_entity, reading) VALUES
  ('COc1ccc([C@@H]2CN(C(=O)/C(C#N)=C/c3ccc(F)cc3)C[C@H]2C(=O)NCCOCCOCCOCCOCCOCCNC(=O)c2ccc(-c3ccc4c(c3)[C@H](Nc3ccc(Cl)cc3)C[C@H](C)N4C(C)=O)cc2)cc1 [Example 15ac]', 'BRD4 (Homo sapiens, UniProt O60885)', '> 200 nM'),
  ('CC(=O)N1c2ccc(-c3ccc(C(=O)NCCOCCOCCOCCOCCOCCNC(=O)C4CCCN(C(=O)/C(C#N)=C/c5ccn(C)n5)C4)cc3)cc2[C@H](Nc2ccc(Cl)cc2)C[C@@H]1C (stereo partly drawn) [Example 13c]', 'BRD4 (Homo sapiens, UniProt O60885)', '25 to 200 nM'),
  ('CC(=O)N1c2ccc(-c3ccc(C(=O)NCCOCCOCCOCCOCCOCCNC(=O)C4CC(c5ccc(C(F)(F)F)cc5)CN(C(=O)/C(C#N)=C/C(C)(C)CN5CCOCC5)C4)cc3)cc2[C@H](Nc2ccc(Cl)cc2)C[C@@H]1C (stereo partly drawn) [Example 13an]', 'BRD4 (Homo sapiens, UniProt O60885)', '25 to 200 nM'),
  ('CC(=O)N1c2ccc(-c3ccc(C(=O)NCCOCCOCCOCCOCCOCCNC(=O)C4CC(C(C)C)CN(C(=O)/C(C#N)=C/c5ccn(C)n5)C4)cc3)cc2[C@H](Nc2ccc(Cl)cc2)C[C@@H]1C (stereo partly drawn) [Example 13m]', 'BRD4 (Homo sapiens, UniProt O60885)', '25 to 200 nM'),
  ('CC(=O)N1c2ccc(-c3ccc(C(=O)NCCOCCOCCOCCOCCOCCNC(=O)[C@@H]4CN(C(=O)/C(C#N)=C/C(C)(C)C)C[C@H]4C)cc3)cc2[C@H](Nc2ccc(Cl)cc2)C[C@@H]1C [Example 15b]', 'BRD4 (Homo sapiens, UniProt O60885)', '25 to 200 nM'),
  ('CC(=O)N1c2ccc(-c3ccc(C(=O)NCCOCCOCCOCCOCCOCCNC(=O)C4CC(C(C)C)CN(C(=O)/C(C#N)=C/c5nccs5)C4)cc3)cc2[C@H](Nc2ccc(Cl)cc2)C[C@@H]1C (stereo partly drawn) [Example 13k]', 'BRD4 (Homo sapiens, UniProt O60885)', '< 25 nM'),
  ('CC(=O)N1c2ccc(-c3ccc(C(=O)NCCOCCOCCOCCOCCOCCNC(=O)C4CC(C)CN(C(=O)/C(C#N)=C/c5ccc(F)cc5)C4)cc3)cc2[C@H](Nc2ccc(Cl)cc2)C[C@@H]1C (stereo partly drawn) [Example 13i]', 'BRD4 (Homo sapiens, UniProt O60885)', '> 200 nM'),
  ('CC(=O)N1c2ccc(-c3ccc(C(=O)NCCOCCOCCOCCOCCOCCNC(=O)[C@@H]4CN(C(=O)/C(C#N)=C/c5nccs5)C[C@H]4c4cccc(C)c4)cc3)cc2[C@H](Nc2ccc(Cl)cc2)C[C@@H]1C [Example 15aj]', 'BRD4 (Homo sapiens, UniProt O60885)', '25 to 200 nM');

Please indicate DC50 recorded for CC(=O)N1c2ccc(-c3ccc(C(=O)NCCOCCOCCOCCOCCOCCNC(=O)C4CCCN(C(=O)/C(C#N)=C/C(C)(C)C)C4)cc3)cc2[C@H](Nc2ccc(Cl)cc2)C[C@@H]1C (stereo partly drawn) [Example 13b]
25 to 200 nM

Respond only with DC50 recorded for CC(=O)N1c2ccc(-c3ccc(C(=O)NCCOCCOCCOCCOCCOCCNC(=O)[C@@H]4CN(C(=O)/C(C#N)=C/C(C)(C)CN5CCOCC5)C[C@H]4C4CCCCC4)cc3)cc2[C@H](Nc2ccc(Cl)cc2)C[C@@H]1C [Example 15t]
25 to 200 nM

For the molecule CC(=O)N1c2ccc(-c3ccc(C(=O)NCCOCCOCCOCCOCCOCCNC(=O)C4CC(C5CC5)CN(C(=O)/C(C#N)=C/C(C)(C)C)C4)cc3)cc2[C@H](Nc2ccc(Cl)cc2)C[C@@H]1C (stereo partly drawn) [Example 13v] , give its measured DC50 value.
25 to 200 nM
